TESTED TARGET: HER2 YVMA (Homo sapiens, UniProt P04626, INS775YVMA)
Construct: expressed in transfected cells; host or cells: BaF3 (murine pro-B)
Sequence (P04626 with tags, fused parts or gaps INS775YVMA): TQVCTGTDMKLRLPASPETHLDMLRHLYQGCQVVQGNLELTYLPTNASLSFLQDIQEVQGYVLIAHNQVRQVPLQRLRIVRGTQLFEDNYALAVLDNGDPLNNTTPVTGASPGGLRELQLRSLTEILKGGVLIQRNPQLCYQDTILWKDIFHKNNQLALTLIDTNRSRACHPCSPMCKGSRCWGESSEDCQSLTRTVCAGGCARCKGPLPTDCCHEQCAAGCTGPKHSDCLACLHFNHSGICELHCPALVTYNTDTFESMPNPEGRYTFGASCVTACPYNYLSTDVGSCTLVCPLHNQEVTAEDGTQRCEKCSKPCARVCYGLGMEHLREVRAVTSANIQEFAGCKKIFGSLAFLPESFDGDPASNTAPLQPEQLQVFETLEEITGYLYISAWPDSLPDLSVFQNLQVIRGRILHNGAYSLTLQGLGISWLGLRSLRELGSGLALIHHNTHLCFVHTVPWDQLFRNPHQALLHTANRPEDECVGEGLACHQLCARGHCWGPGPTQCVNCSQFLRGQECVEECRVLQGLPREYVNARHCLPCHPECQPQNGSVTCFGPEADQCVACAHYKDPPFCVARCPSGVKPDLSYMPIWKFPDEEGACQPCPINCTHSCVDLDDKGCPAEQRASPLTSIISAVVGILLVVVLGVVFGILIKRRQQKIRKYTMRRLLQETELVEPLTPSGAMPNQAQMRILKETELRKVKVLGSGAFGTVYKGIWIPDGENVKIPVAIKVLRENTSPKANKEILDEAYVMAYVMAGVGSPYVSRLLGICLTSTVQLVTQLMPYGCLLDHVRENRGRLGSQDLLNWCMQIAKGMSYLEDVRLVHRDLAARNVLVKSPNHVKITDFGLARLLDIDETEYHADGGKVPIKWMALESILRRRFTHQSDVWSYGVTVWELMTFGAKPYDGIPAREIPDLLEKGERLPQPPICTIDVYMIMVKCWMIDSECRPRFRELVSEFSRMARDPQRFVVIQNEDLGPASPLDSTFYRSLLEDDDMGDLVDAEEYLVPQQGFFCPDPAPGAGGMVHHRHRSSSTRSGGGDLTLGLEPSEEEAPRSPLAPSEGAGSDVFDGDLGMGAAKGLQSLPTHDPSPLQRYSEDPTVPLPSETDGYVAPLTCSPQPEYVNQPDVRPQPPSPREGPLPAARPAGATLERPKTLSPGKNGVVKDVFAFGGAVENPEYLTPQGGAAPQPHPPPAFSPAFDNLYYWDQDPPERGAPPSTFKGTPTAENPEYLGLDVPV
EXPERIMENT SUMMARY: Activity for inhibiting HER2 (Table B), HER2 YVMA
Format: cell-based
CONDITION DETAILS: read-out: HER2 YVMA, potency code (IC50)
pIC50: −log10 of the molar value.
MEASURED PROPERTY: pIC50

### Prompt Could you share what pIC50 was measured for C=CC(=O)Nc1cc2c(Nc3ccc(OCc4cccnn4)c(Cl)c3)ncnc2cc1OCCCN1CCOCC1 , tested on HER2 YVMA (Homo sapiens, UniProt P04626, INS775YVMA)?
### Response 7.00 to 7.30

### Prompt What do you have for C=CC(=O)Nc1cc2c(Nc3ccc(OCc4ccccn4)c(Cl)c3)ncnc2cc1OCCN(C)CC ?
### Response 7.00 to 7.30

### Prompt What do you have for C=CC(=O)Nc1cc2c(Nc3cc(C)c(OCc4ccccn4)cc3F)ncnc2cc1OCCN1CCOCC1 ?
### Response 6.30 to 6.52
